# System: OVCAR-4 ovarian
# PROCEDURE DETAILS: NCI-60 one-dose screen, 48 h (100 = growth as untreated, 0 = no growth, -100 = all killed)
# CONDITIONS USED: 10 µM unless noted
Compounds without any hit were thinned out: in the full panel of roughly 83,000, 20% have a hit.
Each entry falls in a class defined on growth; the bands are Low: < 50%; Medium: ≥ 50% and < 90%; High: ≥ 90%

Q. Please indicate the class for `O=C(CSc1nc2sc3c(c2c(=O)n1-c1ccc(Cl)cc1)CCCC3)NNC(=O)Nc1ccc(Cl)c(C(F)(F)F)c1` based on its growth.
A. Low

Q. Classify this compound: `O=C1[C@H]2Cc3c([nH]c4ccccc34)[C@@H](c3ccc(Br)cc3)N2C(=O)CN1C1CCN(Cc2ccccc2)CC1`
A. Low

Q. Pick a category. Item: N#Cc1nc(-c2ccccc2)oc1N1CCC(CO)C1 (centres undefined)
A. High

Q. Bin this entry: `CN(C)CCCOc1c2ccc(Cl)cc2nc2c1oc1ccccc12`
A. Low

Q. Which growth category applies to CCN1C(=S)N(CC)C2C1N=C(SC)N2/N=C/C=C/c1ccccc1[N+](=O)[O-] (centres undefined) here?
A. Medium

Q. Hey, which category is `O=C(CN1CCOCC1)NNc1ncnc2ccccc12` in, do you know?
A. High

Q. Category lookup for the compound `COc1cc(/C=C/C(=O)c2ccc(C(F)(F)F)cc2)ccc1Oc1nc(NCCO)nc(N2CCOCC2)n1`
A. High

Q. Kindly state the category for this compound: `Cc1ccc2c(n1)C(=O)C(Cl)=C(Nc1cccc(C(C)C)c1)C2=O`
A. Low

Q. State the class of the compound shown: `N[C@@H](Cc1cn(-c2ccnc3ccccc23)nn1)C(=O)O`
A. High

Q. Assign a bin to `CCC/C=C/C=C/C(=O)N[C@@H](Cc1cc(F)cc(F)c1)C(=O)N[C@@H]1C(=O)N2CCC[C@H]2C(=O)N2CCCC[C@H]2C(=O)N[C@@H](C)C(=O)N2C[C@H](C)C[C@H]2C(=O)O[C@H]1C`
A. Low

Q. Band assignment needed for `COc1cc(/C=C/C(=O)c2cc(OC)c(OC)c(OC)c2)ccc1OCc1ccc(F)cc1` please.
A. Low

Q. Could you place `Cn1ccnc1C(=O)/C=C/c1ccc(NC(=O)Nc2ccc(F)cc2)cc1` in its proper category? Many thanks.
A. Medium

Q. Class label required: `COc1ccc(/C=C/C(=O)c2ccc(NC(=O)CSc3nnc(-c4ccc5nc(-c6ccc(Cl)cc6)[nH]c5c4)o3)cc2)cc1`
A. High

Q. Please report the category associated with OC1CCc2c(-c3ccc4ncnc(N5CCc6cc(F)c(Cl)cc65)c4c3)cncc21 (centres undefined) , nothing else.
A. Medium

Q. Form field 'band' for COc1ccccc1/C=C/C=N/NC1=NC2C(S1)N(C)C(=O)N2C (centres undefined)
A. Medium

Q. Classify this compound: `COc1cc(-c2nc3ccc(-c4nnc(SCC(=O)Nc5ccc(C(C)=O)cc5)o4)cc3[nH]2)cc(OC)c1OC`
A. High

Q. Exam item: assign `Cc1cc2nc3c4cc(Cl)ccc4n(CC(=O)NCCN(C)C)c3nc2cc1C` to the correct category.
A. High

Q. Exercise: read the entry `CC(C)(C)Nc1nc2c(OCCc3ccccc3)cccn2c1-c1ccc(Cl)cc1` and state which class it falls under.
A. Low

Q. Which of the defined bands does the recorded growth of `C#C[C@]1(O)CC[C@H]2[C@@H]3CC=C4c5sc(Nc6ccc(Cl)cn6)nc5CC[C@]4(C)[C@H]3CC[C@@]21C` sit within?
A. Medium

Q. The entry to classify is Cc1cc(C(NC(=O)CCCCCNc2cccc3c2C(=O)N(C2CCC(=O)NC2=O)C3=O)c2cccnc2)c(O)c2ncccc12 (centres undefined) ; which class holds it?
A. Low

Q. Returns: class label. Input: `C/C(=N\NC(N)=O)c1c(O)sc(=O)[nH]c1=O`
A. High

Q. Category of `c1ccc2c(NCCCn3ccnc3)c3oc4ccccc4c3nc2c1` , please.
A. Low

Q. Hi, small favor: classify `CSc1ccc2c(c1)N(C(=O)/C(C#N)=C/c1c[nH]c3ccccc13)c1ccccc1S2` by its growth when you get a moment.
A. Medium

Q. For the record `O=C1c2c(c3c4cc(Br)ccc4[nH]c3c3ccc4ccccc4c23)C(=O)N1CCO` , report the class its growth corresponds to.
A. High
